Reference for the values: paper PMC4336329

# testTarget: human ether-à-go-go-related gene (hERG) potassium channel (human)
# Sequence (Q12809 whole entry, looked up): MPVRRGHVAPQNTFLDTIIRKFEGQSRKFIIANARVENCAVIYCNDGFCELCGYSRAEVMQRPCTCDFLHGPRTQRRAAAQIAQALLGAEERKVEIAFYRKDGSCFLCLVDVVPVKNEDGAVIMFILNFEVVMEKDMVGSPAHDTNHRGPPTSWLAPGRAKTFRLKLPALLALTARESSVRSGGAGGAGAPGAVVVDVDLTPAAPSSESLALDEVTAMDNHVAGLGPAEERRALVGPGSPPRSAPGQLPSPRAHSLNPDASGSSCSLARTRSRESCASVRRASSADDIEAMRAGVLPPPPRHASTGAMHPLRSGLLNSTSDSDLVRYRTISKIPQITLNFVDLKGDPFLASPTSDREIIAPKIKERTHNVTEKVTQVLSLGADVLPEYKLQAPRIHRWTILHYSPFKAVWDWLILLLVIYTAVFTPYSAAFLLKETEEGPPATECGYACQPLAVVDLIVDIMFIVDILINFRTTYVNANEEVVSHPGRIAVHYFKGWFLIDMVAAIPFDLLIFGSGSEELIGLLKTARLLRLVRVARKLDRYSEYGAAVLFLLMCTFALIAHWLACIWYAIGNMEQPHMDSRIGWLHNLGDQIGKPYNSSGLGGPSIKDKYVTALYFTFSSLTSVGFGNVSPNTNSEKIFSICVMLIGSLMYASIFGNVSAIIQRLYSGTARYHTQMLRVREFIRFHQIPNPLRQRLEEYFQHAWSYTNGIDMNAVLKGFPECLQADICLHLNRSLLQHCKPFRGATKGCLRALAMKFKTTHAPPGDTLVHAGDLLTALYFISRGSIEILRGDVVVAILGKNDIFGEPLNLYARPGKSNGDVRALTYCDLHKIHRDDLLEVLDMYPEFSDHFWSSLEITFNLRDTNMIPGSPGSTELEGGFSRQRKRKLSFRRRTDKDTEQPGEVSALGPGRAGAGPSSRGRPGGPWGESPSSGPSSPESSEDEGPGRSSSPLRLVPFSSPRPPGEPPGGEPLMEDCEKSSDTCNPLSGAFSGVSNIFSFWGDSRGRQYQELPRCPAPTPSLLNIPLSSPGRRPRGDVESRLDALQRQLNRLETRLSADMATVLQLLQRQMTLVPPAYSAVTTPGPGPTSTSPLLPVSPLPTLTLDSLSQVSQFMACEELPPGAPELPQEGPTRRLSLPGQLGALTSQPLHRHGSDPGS
# protocolNotes: primary screen, population patch clamp on CHO cells stably expressing hERG; higher = less effect of the substance
Among all 310,000 compounds or so, about 2,200 (0.71%) showed an effect of 50% or more. The effect is printed as a negative number. The sample holds strong results, similar compounds and a random draw of the others, so the mix is not that of the screen.
assayReadout: hERG current change (%, negative = inhibition) at 1uM
# answer = value followed by unit

The cases that follow already have their hERG current change (%, negative = inhibition) at 1uM on record.
[
  {
    "compound": "Cc1ccccc1OCC(O)CN1CCN(CC(O)COc2ccccc2C)C(C)C1.O=C(O)C(=O)O (stereo not drawn)",
    "testTarget": "human ether-à-go-go-related gene (hERG) potassium channel (human)",
    "result": "-29%"
  },
  {
    "compound": "CC(C)Cn1c(N2CCN(C(=O)/C=C/c3ccccc3)CC2)nc2ccccc21",
    "testTarget": "human ether-à-go-go-related gene (hERG) potassium channel (human)",
    "result": "-32.9%"
  },
  {
    "compound": "CN(C)CCN(Cc1ccccc1)c1ccccn1.Cl",
    "testTarget": "human ether-à-go-go-related gene (hERG) potassium channel (human)",
    "result": "-19.1%"
  },
  {
    "compound": "COc1cc(NC(=S)NC(=O)c2ccccc2F)ccc1NC(=O)c1ccco1",
    "testTarget": "human ether-à-go-go-related gene (hERG) potassium channel (human)",
    "result": "7.37%"
  },
  {
    "compound": "CC1CCCN(CC(O)COc2ccc(-c3ccccc3)cc2)C1 (stereo not drawn)",
    "testTarget": "human ether-à-go-go-related gene (hERG) potassium channel (human)",
    "result": "-57.8%"
  },
  {
    "compound": "CC1CCCCN1CC(O)COc1ccc(OCC(O)CN2CCCCC2C)cc1 (stereo not drawn)",
    "testTarget": "human ether-à-go-go-related gene (hERG) potassium channel (human)",
    "result": "13.5%"
  },
  {
    "compound": "O=C(O)C(=O)O.OC(COCc1ccco1)CN1CCN(c2ccccc2)CC1 (stereo not drawn)",
    "testTarget": "human ether-à-go-go-related gene (hERG) potassium channel (human)",
    "result": "3.71%"
  },
  {
    "compound": "N#Cc1cn(CCCOc2ccccc2)c2ccccc12",
    "testTarget": "human ether-à-go-go-related gene (hERG) potassium channel (human)",
    "result": "11.3%"
  }
]

Query: May I ask what hERG current change (%, negative = inhibition) at 1uM has been recorded for OC(COCc1ccco1)CN1CCN(C(c2ccccc2)c2ccccc2)CC1 (stereo not drawn) ?
Reply: -79.1%

Query: Name the recorded hERG current change (%, negative = inhibition) at 1uM for CCN(CC)CCCNC(=O)C(C)n1c2ccccc2c2nc(=O)cc(C)n21 (stereo not drawn) .
Reply: 12.7%

Query: Suppose we examine the compound CC1CCCN(CC(O)COc2ccc(Cl)cc2)C1.Cl (stereo not drawn) ; what hERG current change (%, negative = inhibition) at 1uM value has been reported?
Reply: -32.2%

Query: hERG current change (%, negative = inhibition) at 1uM lookup needed for CC(=O)c1cccc(NC(=O)C2CCCN(S(=O)(=O)c3ccccc3)C2)c1 (stereo not drawn) , thanks.
Reply: 7.51%

Query: Quick one: hERG current change (%, negative = inhibition) at 1uM of CS(=O)(=O)NNC(=O)CN1C(=O)C2C3C=CC(C3)C2C1=O (stereo not drawn) ?
Reply: 22.9%
